target: Claudin18.2-His protein (human); experiment: indirect ELISA on coated Claudin18.2-His
ASSAY ENDPOINT: EC50
# include the unit after the value

Some solved entries appear below for comparison.
409D1A7 (antibody, V domains shown) VH: DVQLVESGGGLVQPGGSRKLSCAASGFTFSGFGMHWIRQTPEKGLEWVAYISSGSRPIYYADTVKGRFTISRDNPKNTLFLHMTSLRSEDTAMYFCARFYYGNSFDHWGQGTLVTVSA VL: DIVMTQSPSFLTVTAGEKVTMNCKSSQSLLNSGNQRNYLTWYQQKPGQPPKLLIYWASTRESGVPDRFTGSGSGTDFTLTISSVQAEDLALYYCQNAYSFPLTFGAGTKLELN ... 7.75 ng/mL
409G10G6 (antibody, V domains shown) VH: DVQLVESGGGLVQPGGSRKLSCAASGFTFSGFGMHWIRQTPEKGLEWVAYISSDSRPIYYADTVKGRFTISRDNPKNTLFLQMTSLRSEDTAMYFCGRFYYGNSFDHWGQGTLVTVSA VL: DIVMTQSPSFLTVTAGEKVTLSCRSSQSLLNSGNQRNYLTWYQQKPGQPPKLLIYWASTRESGVPDRFTGSGSGTDFTLTISSVQAEDRALYYCQNAYSFPLTFGTGTKLELR ... 9.52 ng/mL

Pending binder:
Need EC50 of 232C5E3 (antibody, V domains shown) VH: QAYLQQSGAELVRSGASVKMSCKASGYTFTSHNIHWIKQTPGKGLEWIGYIYPGNGGTNYNQKFKAKATLTADTSSSTAYMQISSLTSEDSAVYFCARDYYGNSFAYWGQGTLVTVSA VL: DIMMTQSPSSLTETAGEKVSMSCKSSQSLLNSGNQKNYLTWYQQKPGQPPKLLIYWASTRESGVPDRFSGSGSGTDFTLTISSVQAEDLAVYYCQNGYRFPFTFGAGTKLELK , thanks.
25.9 ng/mL
